B1: Azoarcus group I ribozyme (parent)
chain: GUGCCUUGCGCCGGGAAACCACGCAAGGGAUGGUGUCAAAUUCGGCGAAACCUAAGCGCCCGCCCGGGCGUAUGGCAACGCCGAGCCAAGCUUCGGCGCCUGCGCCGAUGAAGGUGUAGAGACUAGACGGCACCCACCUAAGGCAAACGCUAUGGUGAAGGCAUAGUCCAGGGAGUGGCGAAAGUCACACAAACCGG

- Variants of: B1
- PROCEDURE SUMMARY: reverse-splicing fitness (ratio to wild type); higher = more active; in vitro selection; Mg2+ level not given
Could you label it Fulfilled if measured reverse-splicing fitness is 0.007 or higher, and Not fulfilled otherwise?

Assess whether reported reverse-splicing fitness for C82A A111G A145U C150G U176A sits at 0.007 or higher. Fulfilled

Check C82A A111C A120C A145G C150G C169A too. Fulfilled

Check C82G A111U A120U A145G C150A C169G too. Not fulfilled

Values were extracted from the RNAGym collection of RNA variant scans (doi:10.1093/molbev/msab373).
